Please respond with reported normalized RNA/DNA level without ligand (log10) for every item in the list.
B1: library; a variant is named by its letters at N, in order (parent)
chain: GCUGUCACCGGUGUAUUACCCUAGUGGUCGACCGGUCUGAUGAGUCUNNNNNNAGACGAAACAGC

variants of: B1; test: normalized RNA/DNA level without ligand (relative to sTRSVctl = 100) (log10 (% of sTRSVctl)); ligand: hypoxanthine (xanthine aptamer); higher = less ribozyme self-cleavage, higher mRNA level; settings: HEK293T, reporter: mCherry (pCS4076), ligand present: no
Reply with just the number.

[ask] Please supply the value of reported normalized RNA/DNA level without ligand (log10) for the item GCUGUCACCGGUGUAUUACCCUAGUGGUCGACCGGUCUGAUGAGUCUUCCAUUAGACGAAACAGC [UCCAUU]
[reply] 1.89

[ask] Please supply the value of reported normalized RNA/DNA level without ligand (log10) for the item GCUGUCACCGGUGUAUUACCCUAGUGGUCGACCGGUCUGAUGAGUCUCUGAUGAGACGAAACAGC [CUGAUG]
[reply] 1.65

[ask] Please supply the value of reported normalized RNA/DNA level without ligand (log10) for the item GCUGUCACCGGUGUAUUACCCUAGUGGUCGACCGGUCUGAUGAGUCUCCGUUCAGACGAAACAGC [CCGUUC]
[reply] 1.82

[ask] Please supply the value of reported normalized RNA/DNA level without ligand (log10) for the item GCUGUCACCGGUGUAUUACCCUAGUGGUCGACCGGUCUGAUGAGUCUAACCUUAGACGAAACAGC [AACCUU]
[reply] 1.9

[ask] Please supply the value of reported normalized RNA/DNA level without ligand (log10) for the item GCUGUCACCGGUGUAUUACCCUAGUGGUCGACCGGUCUGAUGAGUCUGCAGAUAGACGAAACAGC [GCAGAU]
[reply] 1.76

[ask] Please supply the value of reported normalized RNA/DNA level without ligand (log10) for the item GCUGUCACCGGUGUAUUACCCUAGUGGUCGACCGGUCUGAUGAGUCUCGCGAUAGACGAAACAGC [CGCGAU]
[reply] 1.79

[ask] Please supply the value of reported normalized RNA/DNA level without ligand (log10) for the item GCUGUCACCGGUGUAUUACCCUAGUGGUCGACCGGUCUGAUGAGUCUGGGACGAGACGAAACAGC [GGGACG]
[reply] 1.51

[ask] Please supply the value of reported normalized RNA/DNA level without ligand (log10) for the item GCUGUCACCGGUGUAUUACCCUAGUGGUCGACCGGUCUGAUGAGUCUAGGCGCAGACGAAACAGC [AGGCGC]
[reply] 1.87

[ask] Please supply the value of reported normalized RNA/DNA level without ligand (log10) for the item GCUGUCACCGGUGUAUUACCCUAGUGGUCGACCGGUCUGAUGAGUCUGAUGACAGACGAAACAGC [GAUGAC]
[reply] 1.72

[ask] Please supply the value of reported normalized RNA/DNA level without ligand (log10) for the item GCUGUCACCGGUGUAUUACCCUAGUGGUCGACCGGUCUGAUGAGUCUAAACAUAGACGAAACAGC [AAACAU]
[reply] 1.76

[ask] Please supply the value of reported normalized RNA/DNA level without ligand (log10) for the item GCUGUCACCGGUGUAUUACCCUAGUGGUCGACCGGUCUGAUGAGUCUCGAGACAGACGAAACAGC [CGAGAC]
[reply] 1.72

This collection of values is drawn from the supplement of paper PMC6757056.
